System: Puccinia triticina
assay.protocol: Fungicidal activity: wheat brown rust (PUCCRT), wheat seedlings, booth sprayer to run-off or track spray
Format: in vivo
assay.conditions: 72 h, Low-Volume Cereal Activity at 121.5 g/H, 3 Day Curative, read-out: PUCCRT 3DC
metric: pest or weed control at 121.5 g/ha

compound=COc1ccnc(C(=O)N[C@@H](C)C(=O)O[C@@H](C)[C@@H](COc2ccccc2)Cc2ccccc2)c1OCOC(C)=O measured_result="0 to 80%"
compound=COC(=O)[C@@H](Cc1ccccc1)[C@H](C)OC(=O)[C@H](C)NC(=O)c1nccc(OC)c1OCOC(C)=O measured_result="0 to 80%"
compound=CC[C@H](NC(=O)c1nccc(OC)c1OCOC(C)=O)C(=O)O[C@@H](C)C(Cc1cccc(OC)c1)Cc1cccc(OC)c1 measured_result="0 to 80%"
compound=COC[C@@H](Cc1ccc(F)cc1)[C@H](C)OC(=O)[C@H](C)NC(=O)c1nccc(OC)c1OCOC(C)=O measured_result="80 to 100%"
compound="COc1ccnc(C(=O)N[C@H](C(=O)OC(C)C(Cc2ccccc2)Cc2ccccc2)C(C)C)c1OCOC(C)=O (some centres unmarked)" measured_result="0 to 80%"
compound=CCCC[C@@H]([C@H](C)OC(=O)[C@H](C)NC(=O)c1nccc(OC)c1OCOC(C)=O)[C@H](CC)Oc1ccccc1 measured_result="80 to 100%"
compound=COc1cccc(CC(Cc2cccc(OC)c2)[C@H](C)OC(=O)[C@H](C)NC(=O)c2nccc(OC)c2OCOC(C)=O)c1 measured_result="0 to 80%"
compound="COc1ccnc(C(=O)N[C@@H](C)C(=O)OC(C)C(Cc2ccccc2)Cc2ccccc2)c1OC(C)=O (some centres unmarked)" measured_result="0 to 80%"
compound=CCCO[C@@H](CC)[C@@H](Cc1ccccc1)[C@H](C)OC(=O)[C@H](C)NC(=O)c1nccc(OC)c1OCOC(C)=O measured_result="80 to 100%"
compound=COc1ccnc(C(=O)N[C@@H](C)C(=O)O[C@@H](C)[C@H](Cc2ccccc2)C(C)(C)OCc2ccccc2)c1OCOC(C)=O measured_result="80 to 100%"
compound=CCOCC(=O)OCOc1c(OC)ccnc1C(=O)N[C@@H](C)C(=O)O[C@@H](C)[C@@H](COC)Cc1ccc(F)cc1 measured_result="80 to 100%"
compound="COc1ccnc(C(=O)N[C@H](C(=O)OC(C)C(Cc2ccccc2)Cc2ccccc2)C(C)C)c1OC(C)=O (some centres unmarked)" measured_result="0 to 80%"
compound=CCOCC(=O)OCOc1c(OC)ccnc1C(=O)N[C@@H](C)C(=O)O[C@@H](C)[C@H](CCC(C)C)c1ccccc1 measured_result="80 to 100%"
compound=CCOCC(=O)OCOc1c(OC)ccnc1C(=O)N[C@@H](C)C(=O)O[C@@H](C)[C@H](Cc1ccc(F)cc1)C(C)(C)OC measured_result="0 to 80%"
compound=COc1ccnc(C(=O)N[C@@H](C)C(=O)O[C@@H](C)[C@H](Cc2ccc(Cl)cc2)c2ccccc2)c1OCOC(=O)C(C)C measured_result="0 to 80%"
compound=CCCO[C@@H](CC)[C@@H](Cc1ccccc1)[C@H](C)OC(=O)[C@H](CC)NC(=O)c1nccc(OC)c1OCOC(C)=O measured_result="80 to 100%"
compound="CC[C@H](NC(=O)c1nccc(OC)c1OC(C)=O)C(=O)OC(C)C(Cc1ccccc1)Cc1ccccc1 (some centres unmarked)" measured_result="0 to 80%"
compound=COc1ccnc(C(=O)N[C@@H](C)C(=O)O[C@@H](C)[C@H](Cc2ccc(Cl)c(Cl)c2)c2ccccc2)c1OC(C)=O measured_result="0 to 80%"
compound=CCCO[C@H](CC)[C@@H](Cc1ccccc1)[C@H](C)OC(=O)[C@H](C)NC(=O)c1nccc(OC)c1OCOC(C)=O measured_result="80 to 100%"
compound=COc1ccnc(C(=O)N[C@@H](C)C(=O)O[C@@H](C)[C@@H](COCc2ccccc2)Cc2ccc(F)cc2)c1OC(C)=O measured_result="0 to 80%"
compound=CC[C@@H](c1ccccc1)[C@H](C)OC(=O)[C@H](C)NC(=O)c1nccc(OC)c1OC(C)=O measured_result="80 to 100%"
compound=COc1ccnc(C(=O)N[C@@H](C)C(=O)O[C@@H](C)[C@H](Cc2ccc(Cl)c(Cl)c2)c2ccccc2)c1OCOC(=O)C(C)C measured_result="0 to 80%"
compound=COc1ccnc(C(=O)N[C@@H](C)C(=O)O[C@@H](C)[C@H](Cc2ccccc2)C(C)C)c1OCOC(C)=O measured_result="80 to 100%"
compound=CCCC[C@H](c1ccccc1)[C@H](C)OC(=O)[C@H](C)NC(=O)c1nccc(OC)c1OCOC(C)=O measured_result="80 to 100%"
compound=CCOCC(=O)OCOc1c(OC)ccnc1C(=O)N[C@@H](C)C(=O)O[C@@H](C)[C@H](Cc1ccccc1)C(C)(C)OCc1ccccc1 measured_result="0 to 80%"
compound=CCCOC[C@@H](Cc1ccc(OC)cc1)[C@H](C)OC(=O)[C@H](C)NC(=O)c1nccc(OC)c1OCOC(C)=O measured_result="80 to 100%"
